system: OVCAR-3 ovarian; assay: NCI-60 one-dose screen, 48 h; details: 10 µM unless noted
This is part of a sample that, as a whole, favours compounds with a hit. Of some 83,000 tested, about 20% had one in any assay. Active and inactive are the calls of the source. The calls were made as follows: active = growth percent below 10; inactive = the rest.
# output must be one of YES (active), NO (inactive)

Short answer needed: outcome of this test for CC(O)C(NC(=O)C1CCCN1C(=O)CNC(=O)C1CC(=O)NCC(=O)NC(Cc2c[nH]c3ccccc23)C(=O)NC(Cc2ccc(O)cc2)C(=O)NCC(=O)NC(CO)C(=O)NC(CCC(N)=O)C(=O)NC(Cc2c[nH]c3ccccc23)C(=O)N1)C(=O)NCC(=O)NC(CCC(N)=O)C(=O)NC(CCCNC(=N)N)C(=O)NC(CC(=O)O)C(=O)O (configuration not stated) ? NO

Short answer needed: outcome of this test for `Cc1nc(-c2cc3ccccc3oc2=O)ccc1C(=O)/C=C/c1ccc(Cl)c(Cl)c1` ? NO

Short answer needed: outcome of this test for `Oc1c(Cl)cc(Cl)c2ccc(CN3CCCCC3)nc12` ? NO

Short answer needed: outcome of this test for `NS(=O)(=O)c1cccc(Nc2nc(SCC(=O)c3ccc(Br)cc3)nc3ccccc23)c1` ? NO

Short answer needed: outcome of this test for `CCN1CCN(/C(=N\c2sc(-c3ccccc3)nc2-c2ccccc2)c2ccccc2)CC1` ? NO

Short answer needed: outcome of this test for `COC(=O)c1ccc(NC(=S)N2CCc3ccc([N+](=O)[O-])cc3C2)cc1O` ? NO

Ref: PubChem BioAssay (NCI)
